Settings: prodrug/POPC/2.5kPS3k (1:1:2) nanoparticles in water; volume weighted average
Form field: Diameter (one value per entry).
All answers are understood in nm, so give the number only.

// known answers, use as guide
* CC(=O)O[C@H]1C(=O)[C@@]2(C)[C@H]([C@H](OC(=O)c3ccccc3)[C@]3(O)C[C@H](OC(=O)[C@H](OC(=O)COCC(=O)O[C@H]4CC[C@@]5(C)C(=CC[C@H]6[C@@H]7CC[C@H]([C@H](C)CCCC(C)C)[C@@]7(C)CC[C@@H]65)C4)[C@@H](NC(=O)c4ccccc4)c4ccccc4)C(C)=C1C3(C)C)[C@]1(OC(C)=O)CO[C@@H]1C[C@@H]2O [Prodrug 8] | 23
* CCCCCCCCCCCCCC(=O)OC[C@H](COC(=O)COCC(=O)O[C@@H](C(=O)O[C@H]1C[C@@]2(O)[C@@H](OC(=O)c3ccccc3)[C@@H]3[C@]4(OC(C)=O)CO[C@@H]4C[C@H](O)[C@@]3(C)C(=O)[C@H](OC(C)=O)C(=C1C)C2(C)C)[C@@H](NC(=O)c1ccccc1)c1ccccc1)OC(=O)CCCCCCCCCCCCC [Prodrug 9] | 23

Okay, now this compound:
Inquiry: Query: Diameter; subject: CC(=O)OC1C(=O)C2(C)C(O)CC3OCC3(OC(C)=O)C2C(OC(=O)c2ccccc2)C2(O)CC(OC(=O)C(OC(=O)COCC(=O)Oc3c(C)c(C)c4c(c3C)CCC(C)(CCCC(C)CCCC(C)CCCC(C)C)O4)C(NC(=O)c3ccccc3)c3ccccc3)C(C)=C1C2(C)C (stereo not drawn) [Prodrug 3]
Reply text: 24

====

Form field: partitioning half life (one value per entry).
Settings: mouse, in vivo

- CCCCCCCCCCCCCCCCCCCCOC(=O)COCC(=O)O[C@@H](C(=O)O[C@H]1C[C@@]2(O)[C@@H](OC(=O)c3ccccc3)[C@@H]3[C@]4(OC(C)=O)CO[C@@H]4C[C@H](O)[C@@]3(C)C(=O)[C@H](OC(C)=O)C(=C1C)C2(C)C)[C@@H](NC(=O)c1ccccc1)c1ccccc1 [Prodrug 6]: ~6.5 h
- CCCCCCCCCCCCCCCCCCCCCCOC(=O)COCC(=O)OC(C(=O)OC1CC2(O)C(OC(=O)c3ccccc3)C3C4(OC(C)=O)COC4CC(O)C3(C)C(=O)C(OC(C)=O)C(=C1C)C2(C)C)C(NC(=O)c1ccccc1)c1ccccc1 (stereo not shown) [Prodrug 7]: ~10 h

Inquiry: Query: partitioning half life; subject: CCCCCCCCCCCCCC(=O)OC[C@H](COC(=O)COCC(=O)O[C@@H](C(=O)O[C@H]1C[C@@]2(O)[C@@H](OC(=O)c3ccccc3)[C@@H]3[C@]4(OC(C)=O)CO[C@@H]4C[C@H](O)[C@@]3(C)C(=O)[C@H](OC(C)=O)C(=C1C)C2(C)C)[C@@H](NC(=O)c1ccccc1)c1ccccc1)OC(=O)CCCCCCCCCCCCC [Prodrug 9]
Reply text: 8.5 h

====

Tested on: HT29 human colon carcinoma cells
Conditions: HT29 model; 36 μmol/kg; Q4Dx6; nanoparticle formulations
Form field: treatment induced delay in reaching a mean tumor size of 500 mm^3 (one value per entry).
All answers are understood in days, so give the number only.

// known answers, use as guide
* CCCCCCCC/C=C\CCCCCCCCOC(=O)COCC(=O)O[C@@H](C(=O)O[C@H]1C[C@@]2(O)[C@@H](OC(=O)c3ccccc3)[C@@H]3[C@]4(OC(C)=O)CO[C@@H]4C[C@H](O)[C@@]3(C)C(=O)[C@H](OC(C)=O)C(=C1C)C2(C)C)[C@@H](NC(=O)c1ccccc1)c1ccccc1 [Prodrug 4, 2′-O-(5″-O-oleyldiglycoloyl)-paclitaxel] | 3
* CCCCCCCCCCCCCCCCCCOC(=O)COCC(=O)O[C@@H](C(=O)O[C@H]1C[C@@]2(O)[C@@H](OC(=O)c3ccccc3)[C@@H]3[C@]4(OC(C)=O)CO[C@@H]4C[C@H](O)[C@@]3(C)C(=O)[C@H](OC(C)=O)C(=C1C)C2(C)C)[C@@H](NC(=O)c1ccccc1)c1ccccc1 [Prodrug 5] | 4
* CCCCCCCCCCCCCCCCCCCCCCOC(=O)COCC(=O)OC(C(=O)OC1CC2(O)C(OC(=O)c3ccccc3)C3C4(OC(C)=O)COC4CC(O)C3(C)C(=O)C(OC(C)=O)C(=C1C)C2(C)C)C(NC(=O)c1ccccc1)c1ccccc1 (stereo not shown) [Prodrug 7] | 17

Inquiry: Query: treatment induced delay in reaching a mean tumor size of 500 mm^3; subject: CCCCCCCCCCCCCCCCCCCCOC(=O)COCC(=O)O[C@@H](C(=O)O[C@H]1C[C@@]2(O)[C@@H](OC(=O)c3ccccc3)[C@@H]3[C@]4(OC(C)=O)CO[C@@H]4C[C@H](O)[C@@]3(C)C(=O)[C@H](OC(C)=O)C(=C1C)C2(C)C)[C@@H](NC(=O)c1ccccc1)c1ccccc1 [Prodrug 6]
Reply text: 15

====

Conditions: co-lipid POPC; prodrug/co-lipid/2.5kPS3k (1:1:2); 300 mM sucrose; vortexing 30 seconds
Result Type: ΔZave 300 mM sucrose

// known answers, use as guide
• CCCCCCCCCCCCCCCCCCCCCCOC(=O)COCC(=O)OC(C(=O)OC1CC2(O)C(OC(=O)c3ccccc3)C3C4(OC(C)=O)COC4CC(O)C3(C)C(=O)C(OC(C)=O)C(=C1C)C2(C)C)C(NC(=O)c1ccccc1)c1ccccc1 (stereo not shown) [Prodrug 7] = 0 nm
• CCCCCCCC/C=C\CCCCCCCCOC(=O)CCC(=O)O[C@@H](C(=O)O[C@H]1C[C@@]2(O)[C@@H](OC(=O)c3ccccc3)[C@@H]3[C@]4(OC(C)=O)CO[C@@H]4C[C@H](O)[C@@]3(C)C(=O)[C@H](OC(C)=O)C(=C1C)C2(C)C)[C@@H](NC(=O)c1ccccc1)c1ccccc1 [Prodrug 2, 2′-O-(4″-O-oleylsuccinoyl)-paclitaxel] = 10 nm
• CCCCCCCCCCCCCCCCCCCCOC(=O)COCC(=O)O[C@@H](C(=O)O[C@H]1C[C@@]2(O)[C@@H](OC(=O)c3ccccc3)[C@@H]3[C@]4(OC(C)=O)CO[C@@H]4C[C@H](O)[C@@]3(C)C(=O)[C@H](OC(C)=O)C(=C1C)C2(C)C)[C@@H](NC(=O)c1ccccc1)c1ccccc1 [Prodrug 6] = 36 nm

Okay, now this compound:
Inquiry: Query: ΔZave 300 mM sucrose; subject: CCCCCCCCCCCCCC(=O)OC[C@H](COC(=O)COCC(=O)O[C@@H](C(=O)O[C@H]1C[C@@]2(O)[C@@H](OC(=O)c3ccccc3)[C@@H]3[C@]4(OC(C)=O)CO[C@@H]4C[C@H](O)[C@@]3(C)C(=O)[C@H](OC(C)=O)C(=C1C)C2(C)C)[C@@H](NC(=O)c1ccccc1)c1ccccc1)OC(=O)CCCCCCCCCCCCC [Prodrug 9]
Reply text: 0 nm

====

Form field: ΔZave water (one value per entry).
Details: co-lipid POPC; prodrug/co-lipid/2.5kPS3k (1:1:2); water; vortexing 30 seconds
All answers are understood in nm, so give the number only.

// known answers, use as guide
- CCCCCCCC/C=C\CCCCCCCCOC(=O)CCC(=O)O[C@@H](C(=O)O[C@H]1C[C@@]2(O)[C@@H](OC(=O)c3ccccc3)[C@@H]3[C@]4(OC(C)=O)CO[C@@H]4C[C@H](O)[C@@]3(C)C(=O)[C@H](OC(C)=O)C(=C1C)C2(C)C)[C@@H](NC(=O)c1ccccc1)c1ccccc1 [Prodrug 2, 2′-O-(4″-O-oleylsuccinoyl)-paclitaxel]: 20
- CCCCCCCCCCCCCCCCCCOC(=O)COCC(=O)O[C@@H](C(=O)O[C@H]1C[C@@]2(O)[C@@H](OC(=O)c3ccccc3)[C@@H]3[C@]4(OC(C)=O)CO[C@@H]4C[C@H](O)[C@@]3(C)C(=O)[C@H](OC(C)=O)C(=C1C)C2(C)C)[C@@H](NC(=O)c1ccccc1)c1ccccc1 [Prodrug 5]: 20
- CCCCCCCCCCCCCCCCCCCCOC(=O)COCC(=O)O[C@@H](C(=O)O[C@H]1C[C@@]2(O)[C@@H](OC(=O)c3ccccc3)[C@@H]3[C@]4(OC(C)=O)CO[C@@H]4C[C@H](O)[C@@]3(C)C(=O)[C@H](OC(C)=O)C(=C1C)C2(C)C)[C@@H](NC(=O)c1ccccc1)c1ccccc1 [Prodrug 6]: 21
- CCCCCCCCCCCCCCCCCCCCCCOC(=O)COCC(=O)OC(C(=O)OC1CC2(O)C(OC(=O)c3ccccc3)C3C4(OC(C)=O)COC4CC(O)C3(C)C(=O)C(OC(C)=O)C(=C1C)C2(C)C)C(NC(=O)c1ccccc1)c1ccccc1 (centres unmarked) [Prodrug 7]: 18

Okay, now this compound:
Inquiry: Query: ΔZave water; subject: CCCCCCCCCCCCCC(=O)OC[C@H](COC(=O)COCC(=O)O[C@@H](C(=O)O[C@H]1C[C@@]2(O)[C@@H](OC(=O)c3ccccc3)[C@@H]3[C@]4(OC(C)=O)CO[C@@H]4C[C@H](O)[C@@]3(C)C(=O)[C@H](OC(C)=O)C(=C1C)C2(C)C)[C@@H](NC(=O)c1ccccc1)c1ccccc1)OC(=O)CCCCCCCCCCCCC [Prodrug 9]
Reply text: 167
